# Tested on: MDR1
# test_details: in vitro
# assay_conditions: dog, MDCK-MDR1, pH 7.4, MDCK-MDR1: Papp B-A (10^−6, cm/s)
Could you please report measured Papp B→A at 120 min, 5 μM for the items listed next?
Only the number, expressed in ×10⁻⁶ cm/s, is required.

Reported Papp B→A at 120 min, 5 μM ( CN(c1cnc(-c2ccc(-c3ccn(C)c(=O)c3)cc2O)cn1)[C@@H]1C[C@H]2CCC[C@H](N2)[C@@H]1F ) = 50.3

Note to self: Papp B→A at 120 min, 5 μM recorded for CN(c1cnc(-c2ccc(-c3ccn(CF)c(=O)c3)cc2O)cn1)[C@H]1C[C@@H]2CCC(N2)[C@H]1F (single isomer, unassigned) was 43

// CN(c1cnc(-c2ccc(C3=CC(=O)NC3)cc2O)cn1)[C@@H]1CC2CC[C@H](N2)[C@@H]1F (single isomer, unassigned) : Papp B→A at 120 min, 5 μM value = 41

// sample COc1cc(-c2ccc(-c3cnc(N(C)[C@H]4C[C@@H]5CCC(N5)[C@H]4F)cn3)c(O)c2)ncn1 (single isomer, unassigned) , its Papp B→A at 120 min, 5 μM was 13.8

CN(C)C(=O)c1cc(O)c(-c2cnc(N(C)[C@H]3C[C@@H]4CCC(N4)[C@H]3F)cn2)cc1F (single isomer, unassigned) has a reported Papp B→A at 120 min, 5 μM of 59.1

Lab note: measured Papp B→A at 120 min, 5 μM of CN(c1cnc(-c2cc3ncn(CC(F)(F)F)c(=O)c3cc2O)cn1)[C@H]1C[C@@H]2CCC[C@@H](N2)[C@H]1F was 73.5

The value of Papp B→A at 120 min, 5 μM measured for the molecule CN(c1cnc(-c2ccc(-c3cnn(C)c3)cc2O)cn1)[C@@H]1CC2CC(F)(F)[C@@H](C1)N2 (single isomer, unassigned) turned out to be 26.1

Data point: CN(c1cnc(-c2cc(F)c(-c3cn[nH]c3)cc2O)cn1)[C@@H]1CC2N[C@H](C1)CC2(F)F (single isomer, unassigned) ; Papp B→A at 120 min, 5 μM = 37.7

Entry under test: CN(c1cnc(-c2cc(F)c(-c3cnn(C)c3)cc2O)cn1)[C@@H]1CC2CC(F)(F)[C@@H](C1)N2 (single isomer, unassigned) . Its Papp B→A at 120 min, 5 μM was 20.7

Recorded Papp B→A at 120 min, 5 μM (molecule CN(c1cnc(-c2ccc(C3=CC(=O)NC3)cc2O)cn1)[C@H]1C[C@@H]2CCC(N2)[C@H]1F (single isomer, unassigned) ): 30.7

Papp B→A at 120 min, 5 μM reading for Cn1ccc(-c2ccc(-c3cnc(N(C4CC4)[C@@H]4CC5CC[C@H](N5)[C@@H]4F)cn3)c(O)c2)cc1=O (single isomer, unassigned) : 50.9

Item: CN(c1cnc(-c2ccc(-c3cn[nH]c3)cc2O)cn1)[C@H]1C[C@@H]2CCC(N2)[C@@H]1F (single isomer, unassigned) | Papp B→A at 120 min, 5 μM: 40.6

* * *

# Tested on: MDR1
# test_details: in vitro
# assay_conditions: dog, MDCK-MDR1, pH 7.4, MDCK-MDR1: Papp A-B (10^−6, cm/s)
observation_type: Papp A→B at 120 min, 5 μM (×10⁻⁶ cm/s)
Only the number, expressed in ×10⁻⁶ cm/s, is required.

Short answer for CN(c1cnc(-c2cc(F)c(-n3ccnn3)cc2O)cn1)[C@H]1C[C@@H]2CCC(N2)[C@H]1F (single isomer, unassigned) : Papp A→B at 120 min, 5 μM was 11.3

Consider COc1cc(-c2cc(O)c(-c3cnc(N(C)[C@@H]4CC5CC[C@H](N5)[C@@H]4F)cn3)cc2F)ccn1 (single isomer, unassigned) . Its measured Papp A→B at 120 min, 5 μM is 3.95

For reference, reported Papp A→B at 120 min, 5 μM for COc1cc(-c2cc(O)c(-c3cnc(N(C)[C@H]4C[C@@H]5CCC(N5)[C@H]4F)cn3)cc2F)cc(F)n1 (single isomer, unassigned) stands at 0.33

Record CN(c1cnc(-c2ccc(-c3cn[nH]c3)cc2O)cn1)[C@@H]1CC2COC[C@H](N2)[C@@H]1F (single isomer, unassigned) . Reported Papp A→B at 120 min, 5 μM: 8.21

Quick note, Papp A→B at 120 min, 5 μM for CN(c1cnc(-c2ccc(-c3cc[nH]c(=O)c3)cc2O)cn1)[C@H]1C[C@@H]2COCC(N2)[C@H]1F (single isomer, unassigned) landed at 0.27

For COc1cc(-c2ccc(-c3cnc(N(C4CC4)[C@@H]4CC5CC[C@H](N5)[C@@H]4F)cn3)c(O)c2)ncn1 (single isomer, unassigned) the compound record lists Papp A→B at 120 min, 5 μM as 2.09

* * *

Exercise: state measured MDCK-MDR1: % Recov A-B (%) for each of the molecules provided.
# Test system: MDR1-MDCK cell monolayers
# assay_conditions: dog, MDCK-MDR1, 120 min, 5 μM, pH 7.4
Your answer is read as %, so omit the unit and give the number.

// field: MDCK-MDR1: % Recov A-B (%); key: CN(c1cnc(-c2cc(F)c(-c3cn[nH]c3)cc2O)cn1)[C@@H]1CC2CC(F)(F)[C@@H](C1)N2 (single isomer, unassigned) ; value = 54

Record summary for CN(C)C(=O)c1cc(O)c(-c2cnc(N(C)[C@@H]3CC4CC[C@H](N4)[C@@H]3F)cn2)cc1F (single isomer, unassigned) : reported MDCK-MDR1: % Recov A-B (%) = 79

// sample CN(c1cnc(-c2cc(F)c(-c3ccn(C)c(=O)c3)cc2O)cn1)[C@@H]1CC2CC[C@H](N2)[C@@H]1F (single isomer, unassigned) , its MDCK-MDR1: % Recov A-B (%) was 454

* * *

# Tested on: MDR1-MDCK cell monolayers
# assay_conditions: dog, MDCK-MDR1, 120 min, 5 μM, pH 7.4
Outcome: met for MDCK-MDR1: % Recov B-A (%) of at least 70%; not met for anything lower.

In: State whether the measured MDCK-MDR1: % Recov B-A (%) reaches 70%, counting equality as reaching it, for COc1cc(-c2ccc(-c3cnc(N(C)[C@@H]4CC5CC[C@H](N5)[C@@H]4F)cn3)c(O)c2)ccn1 (single isomer, unassigned) [Compound 43E1]
Out: not met

In: Decide: MDCK-MDR1: % Recov B-A (%) of CN(c1cnc(-c2ccc(-c3cnn(CF)c3)cc2O)cn1)[C@H]1C[C@@H]2CCC(N2)[C@H]1F (single isomer, unassigned) [Compound 42E2] >= 70%?
Out: not met

In: Has Cc1nc(-c2ccc(-c3cnc(N(C)[C@H]4C[C@@H]5CCC(N5)[C@H]4F)cn3)c(O)c2)no1 (single isomer, unassigned) [Compound 69E2] a recorded MDCK-MDR1: % Recov B-A (%) greater than or equal to 70%?
Out: not met

In: Hi team, for CN(c1cnc(-c2ccc(-c3cn[nH]c3)cc2O)cn1)[C@H]1CC2N[C@@H](C1)CC2(F)F (single isomer, unassigned) [Compound 9E1] , is the recorded MDCK-MDR1: % Recov B-A (%) at or above 70%?
Out: met

In: Is MDCK-MDR1: % Recov B-A (%) for COc1cc(-c2cc(O)c(-c3cnc(N(C)[C@@H]4CC5CC[C@H](N5)[C@@H]4F)cn3)cc2F)ccn1 (single isomer, unassigned) [Compound 30E1] at or above 70%?
Out: not met

In: Reported MDCK-MDR1: % Recov B-A (%) reaches at least 70% for CN(c1cnc(-c2cc(F)c(-c3cnn(C)c3)cc2O)cn1)[C@H]1C[C@@H]2CCC(N2)[C@H]1F (single isomer, unassigned) [Compound 17E2] ?
Out: not met

In: Kindly determine if MDCK-MDR1: % Recov B-A (%) recorded for Cn1cc(-c2cc(O)c(-c3cnc(N(C4CC4)[C@H]4C[C@@H]5CCC(N5)[C@H]4F)cn3)cc2F)cn1 (single isomer, unassigned) [Compound 35E2] is above or exactly 70%.
Out: not met

In: Check this compound for MDCK-MDR1: % Recov B-A (%) at or above 70%: CNC(=O)c1cc(O)c(-c2cnc(N(C)[C@@H]3CC4CC[C@H](N4)[C@@H]3F)cn2)cc1F (single isomer, unassigned) [Compound 15E1]
Out: met

In: Textbook exercise: given the entry CN(c1cnc(-c2ccc(-c3cnn(C)c3)cc2O)cn1)[C@@H]1C[C@H]2CCC[C@H](N2)[C@@H]1F [Compound 4E1] , state whether its MDCK-MDR1: % Recov B-A (%) is greater than or equal to 70%.
Out: not met

* * *

# System: MDR1
# test_details: in vitro
# assay_conditions: dog, MDCK-MDR1, pH 7.4, MDCK-MDR1: Papp A-B (10^−6, cm/s)
observation_type: Papp A→B at 120 min, 5 μM
Output should be the measured figure followed by the unit it is expressed in.

CN(c1cnc(-c2ccc(-c3cnn(C)c3)cc2O)cn1)[C@H]1C[C@@H]2COCC(N2)[C@H]1F (single isomer, unassigned) yielded Papp A→B at 120 min, 5 μM of 9.34 ×10⁻⁶ cm/s

The measured Papp A→B at 120 min, 5 μM associated with CN(c1cnc(-c2cc(F)c(-c3ccn(C)c(=O)c3)cc2O)cn1)[C@@H]1CC2CCC[C@H](N2)[C@@H]1F (single isomer, unassigned) reads 1.99 ×10⁻⁶ cm/s

Record summary for CN(C)C(=O)c1cc(O)c(-c2cnc(N(C)[C@H]3C[C@@H]4CCC(N4)[C@H]3F)cn2)cc1F (single isomer, unassigned) : reported Papp A→B at 120 min, 5 μM = 0.91 ×10⁻⁶ cm/s

So, Cc1cc(-c2ccc(-c3cnc(N(C)[C@H]4C[C@@H]5CCC(N5)[C@H]4F)cn3)c(O)c2)cc(=O)[nH]1 (single isomer, unassigned) ? Its Papp A→B at 120 min, 5 μM was 0.32 ×10⁻⁶ cm/s

Looking up CN(c1cnc(-c2ccc(-c3cnn(C)c3)cc2O)cn1)[C@@H]1CC2CC[C@H](N2)[C@@H]1F (single isomer, unassigned) , I found its Papp A→B at 120 min, 5 μM recorded as 5.62 ×10⁻⁶ cm/s

Reported Papp A→B at 120 min, 5 μM of CN(c1cnc(-c2ccc(-c3cc(=O)n(C)cn3)cc2O)cn1)[C@H]1C[C@@H]2CCC(N2)[C@H]1F (single isomer, unassigned) : 3.35 ×10⁻⁶ cm/s

Lookup result for COc1cc(-c2cc(O)c(-c3cnc(N(C4CC4)[C@H]4C[C@@H]5CCC(N5)[C@H]4F)cn3)cc2F)cc(F)n1 (single isomer, unassigned) ; measured Papp A→B at 120 min, 5 μM: 0.94 ×10⁻⁶ cm/s

CN(c1cnc(-c2ccc(-c3cc(=O)n(C)cn3)cc2O)cn1)[C@@H]1CC2CC[C@H](N2)[C@@H]1F (single isomer, unassigned) yielded Papp A→B at 120 min, 5 μM of 2.32 ×10⁻⁶ cm/s

Papp A→B at 120 min, 5 μM in this record for CN(c1cnc(-c2ccc(-c3cnn(CF)c3)cc2O)cn1)[C@H]1C[C@@H]2CCC(N2)[C@H]1F (single isomer, unassigned) : 5.95 ×10⁻⁶ cm/s

Summary for this molecule, COc1cc(-c2cc(O)c(-c3cnc(N(C)[C@@H]4C[C@@]5(C)CC[C@](C)(N5)[C@@H]4F)cn3)cc2F)cnn1 (single isomer, unassigned) : Papp A→B at 120 min, 5 μM is 3.97 ×10⁻⁶ cm/s

The molecule identified as COc1cc(-c2ccc(-c3cnc(N(C)[C@H]4C[C@@H]5CCC(N5)[C@H]4F)cn3)c(O)c2)cnn1 (single isomer, unassigned) registered its Papp A→B at 120 min, 5 μM at 3.16 ×10⁻⁶ cm/s

These measurements were taken from patent US11964971B2.
